Tested on: HIV-1 (H9IIIB or NL4-3 virus) replication in MT4-GFP cells
Assay Overview: microbe, parasite or virus in culture
Type: cell-based
Experimental Setup: Human immunodeficiency virus 1, NL43, MT4-GFP cells infected with HIV-1; 10% normal human serum; inhibition of reproductive ratio R0, 48-72 h post-infection; read-out: ViKinG IP (nM) with 10% NHS
# class assignment by measured IC50: low (below 30 nM), middle (30 nM to below 50 nM), high (50 nM or more)

Solved cases (5 shown):
In [3]: df
Out[3]:
                                   compound  discrete_label
0  CCN1C(=O)c2c(O)c(=O)c(-c3nnc(Cc4ccc(F)cc4F)s3)cn2N(C)C12CCN(S(=O)(=O)N(C)C)CC2             low
1  CN1C(=O)c2c(O)c(=O)c(C(=O)NCc3ccc(F)cc3F)cn2N(C)C12CCOC2 (stereo not shown)             low
2  CCOC(=O)N1CCC2(CC1)N(C)C(=O)c1c(O)c(=O)c(-c3nnc(Cc4ccc(F)cc4F)s3)cn1N2C             low
3  CCN1C(=O)c2c(O)c(=O)c(-c3nnc(Cc4ccc(F)cc4F)s3)cn2N(C)C12CCN1C(=O)CCC1C2 (stereo not shown)          middle
4  CN1C(=O)c2c(O)c(=O)c(-c3nnc(Cc4ccc(F)cc4F)s3)cn2N(C)C12CCNC(=O)CC2 (stereo not shown)            high

Task: Given CCN1C(=O)c2c(O)c(=O)c(-c3nnc(Cc4ccc(F)cc4)s3)cn2N(C)C12CCN(C(=O)OCc1ccccc1)CC2 , name the class its IC50 places it in.
Output: middle

Task: Looking at CN1C(=O)c2c(O)c(=O)c(-c3nnc(Cc4ccc(F)cc4F)s3)cn2N(C)C12CCN(S(C)(=O)=O)CC2 , which class would you pick?
Output: low

Task: Please indicate the class for C[C@H]1CC2(CCN1C(=O)OCc1ccccc1)N(C)C(=O)c1c(O)c(=O)c(-c3nnc(Cc4ccc(F)cc4F)s3)cn1N2C (stereo partly shown) based on its IC50.
Output: high

Task: Category of CCN1C(=O)c2c(O)c(=O)c(-c3nnc(Cc4ccc(F)cc4F)s3)cn2N(C)C12CCS(=O)(=O)CC2 :
Output: middle

Task: Dear colleague, I would appreciate it if you could identify the bin for CCN1C(=O)c2c(O)c(=O)c(C(=O)NCc3ccc(F)cc3F)cn2N(C)C12CCOC2 (single isomer, unassigned) and reply at your convenience.
Output: low

---

Test system: HIV-1 (H9IIIB or NL4-3 virus) replication in MT4-GFP cells
Assay Overview: microbe, parasite or virus in culture
Assay type: cell-based
Experimental Setup: Human immunodeficiency virus 1, NL43, MT4-GFP cells infected with HIV-1; 10% normal human serum; inhibition of reproductive ratio R0, 48-72 h post-infection; read-out: ViKinG IP (nM) with 10% NHS
Dear colleague, classification is by IC50, with ranges listed here: LOW = under 30 nM, MID = from 30 nM up to 60 nM, HIGH = 60 nM and over

                                   molecule  discrete_label
0  CCOCCN1C(=O)c2c(O)c(=O)c(C(=O)NCc3ccc(F)cc3F)cn2N(C)C12CCOCC2 [Compound 142]             LOW

Could you now look at the following molecule, please?
Task: Quick check: band for CN1C(=O)c2c(O)c(=O)c(-c3nnc(Cc4ccc(F)cc4F)s3)cn2N(C)C12CCS(=O)(=O)CC2 [Compound 27]
Output: HIGH

---

Test system: HIV-1 (H9IIIB or NL4-3 virus) replication in MT4-GFP cells
Assay Overview: microbe, parasite or virus in culture
Type: cell-based
Experimental Setup: Human immunodeficiency virus 1, NL43, MT4-GFP cells infected with HIV-1; 10% normal human serum; inhibition of reproductive ratio R0, 48-72 h post-infection; read-out: ViKinG IP (nM) with 10% NHS
Property Name: log10 of IC50 (log10 of the value in nM)
Heads up, the numbers here are log10 of IC50 in nM units.

In [3]: df
Out[3]:
                                   compound                        measurement_target  property_name  reported_result
0  CCOC(=O)N1CCC2(CC1)N(CC)C(=O)c1c(O)c(=O)c(-c3nnc(Cc4ccc(F)cc4F)s3)cn1N2C [Compound 6]  HIV-1 (H9IIIB or NL4-3 virus) replication in MT4-GFP cells  log10 of IC50             1.11

Next compound, log10 of IC50 to be filled in.
Task: State the recorded log10 of IC50 for this entry: CCN1C(=O)c2c(O)c(=O)c(C(=O)NCc3ccc(F)cc3F)cn2N(C)C12COC2 [Compound 144]
Output: 1.78

---

Tested on: HIV-1 (H9IIIB or NL4-3 virus) replication in MT4-GFP cells
Assay Overview: microbe, parasite or virus in culture
Assay type: cell-based
Experimental Setup: Human immunodeficiency virus 1, NL43, MT4-GFP cells infected with HIV-1; 10% normal human serum; inhibition of reproductive ratio R0, 48-72 h post-infection; read-out: ViKinG IP (nM) with 10% NHS
# IC50 per record follows
# answer = value followed by unit

For orientation, consider the following solved cases.
>>> print(df.to_string())
                                   compound  reported_result
0  CN1C(=O)c2c(O)c(=O)c(-c3nnc(Cc4ccc(F)cc4F)s3)cn2N(C)C12CCOCC2            47 nM
1  CC(=O)N1CCC2(CC1)N(C)C(=O)c1c(O)c(=O)c(-c3nnc(Cc4ccc(F)cc4F)s3)cn1N2C           100 nM
2  COCCN1C(=O)c2c(O)c(=O)c(C(=O)NCc3ccc(F)cc3F)cn2N(C)C12CCOC2 (single isomer, unassigned)            39 nM
3  CN1C(=O)c2c(O)c(=O)c(-c3nnc(Cc4ccc(F)cc4F)s3)cn2N(C)C12CCCNCC2 (centres unmarked)            34 nM
4  CCN1C(=O)c2c(O)c(=O)c(-c3nnc(Cc4ccc(F)cc4)s3)cn2N(C)C12CCNCC2            49 nM
5  CCCN1C(=O)c2c(O)c(=O)c(-c3nnc(Cc4ccc(F)cc4F)s3)cn2N(C)C12CCN(C(=O)OCC)CC2            58 nM
6  CN1C(=O)c2c(O)c(=O)c(C(=O)NCc3ccc(F)cc3F)cn2N(C)C12COC2             7 nM

Task: Recall the recorded IC50 for C[C@@H]1CC2(CCN1C(=O)OCc1ccccc1)N(C)C(=O)c1c(O)c(=O)c(-c3nnc(Cc4ccc(F)cc4F)s3)cn1N2C (some centres unmarked) with HIV-1 (H9IIIB or NL4-3 virus) replication in MT4-GFP cells and state it.
Output: 234 nM
